Data credit: ChEMBL document CHEMBL3414554

Test: Displacement of [3H]BTX-B from neuronal Na+ channel in male Sprague-Dawley rat brain synaptosomal membrane vesicles by liquid scintillation spectrometry
Assay type: tissue-based
measure_name: pIC50
Remember the convention: pIC50 equals -log10 of concentration in molar.

query: Bench note: what pIC50 did O=C(CN1CCCCC1)N1CCN(C2(c3ccccc3)C3CC4CC(C3)CC2C4)CC1 (stereo unspecified) show?
result: 5.61

###

Assay: Displacement of [3H]-DTG from sigma-2 receptor in rat cerebral cortex membranes in presence of (+)-pentazocine by liquid scintillation spectrometry
Format: cell membranes, Membrane
measure_name: IC50 (µM)
Entry rule: numbers only, all in µM.

query: Bench note: what IC50 did O=C(CN1CCCCC1)N1CCN(C2(c3ccccc3)C3CC4CC(C3)CC2C4)CC1 (stereo unspecified) show?
result: 3.34
